pIC50: −log10 of the molar value.
Compiled record: pIC50 values for IRAK4 (Homo sapiens (Human), UniProt Q9NWZ3) across several sources.

For orientation, consider the following solved cases.
compound	system-name	pIC50
Cn1cc(-c2cccc(C(=O)Nc3nc(CCCC(=O)O)cn3-c3ccccc3)c2)cn1	IRAK4 (Homo sapiens (Human), UniProt Q9NWZ3)	7.00 to 7.30
COC(=O)NCC1CC(Nc2cc(-c3ccc4cc(C#N)cnn34)ncc2-c2cn(C3CC(O)C3)nn2)C1 (stereo not shown)	IRAK4 (Homo sapiens (Human), UniProt Q9NWZ3)	> 9.00
CC(C)(O)[C@H](F)CNC(=O)c1cnc(-c2ccc3cc(C#N)cnn23)cc1NC1CCC(F)(c2nnc(C(F)F)o2)CC1 (stereo partly shown)	IRAK4 (Homo sapiens (Human), UniProt Q9NWZ3)	> 9.00

Task: Param readout= pIC50; system= IRAK4 (Homo sapiens (Human), UniProt Q9NWZ3); entry= Cc1cccc(-n2ncc3ccc(-c4ccc(Cl)c(C(C)N)n4)cc32)n1 (stereo not shown) ; returns value.
Output: 6.00 to 7.00

----------
Compiled record: IC50 values for UniProt:Q9NWZ3 across several sources.
# label = TRUE if IC50 < 4 nM else FALSE

Use the examples below as a reference point.
compound	classification
CC(C)Nc1c(C(=O)NCCC(C)(C)O)cnc2ccc(-c3ccncc3)nc12	FALSE
CO[C@@H]1[C@H](O)[C@@H](CO)C[C@H]1Nc1nc(Nc2cc(C)nc(C)c2)ncc1-c1nc2ccccc2s1	FALSE

Task: Does the reported IC50 of CC(C)Oc1nc2nc(C34COC(C)(C3)C4)cn2cc1C(=O)Nc1cccn(C2CC2(F)F)c1=O (stereo not shown) stay below 4 nM?
Output: TRUE

Task: Does the reported IC50 of CC(C)(O)[C@H](F)CNC(=O)c1cnc(-c2cnn3cc(Cl)cnc23)cc1Nc1cccc(C#N)c1F stay below 4 nM?
Output: TRUE

Task: Does the reported IC50 of CNc1cc(-c2nc(C(=O)Nc3cn4cc(CCC(C)(C)O)nc4cc3N3CCCCC3)co2)ccn1 stay below 4 nM?
Output: TRUE

Task: Does the reported IC50 of CC(C)(O)[C@H](F)CNC(=O)c1cnc(Nc2ccc3nonc3c2)cc1NCC(F)(F)F stay below 4 nM?
Output: FALSE

Task: Does the reported IC50 of CC(C)Nc1cc(-c2ccc3cc(C#N)cnn23)ncc1-c1cn(C[C@@H](F)C(C)(C)O)nn1 stay below 4 nM?
Output: TRUE

Task: Does the reported IC50 of CN(C)[C@H]1CC[C@H](Nc2ncnc3ccc(-c4ccc5[nH]ccc5c4)cc23)CC1 stay below 4 nM?
Output: FALSE

Task: Does the reported IC50 of CC(=O)N1CC[C@@H](n2cc(-c3cnc(-n4ncc5cc(C#N)cnc54)cc3NC(C)C)nn2)[C@H](O)C1 (single isomer, unassigned) stay below 4 nM?
Output: TRUE

Task: Does the reported IC50 of CC(C)(O)CCNC(=O)c1cnc(Nc2ccc3ncsc3c2)cc1NC1CC1 stay below 4 nM?
Output: FALSE

Task: Does the reported IC50 of CC(=O)N1CCN([C@H]2CC[C@H](Nc3nc(Nc4cnn(C5CCOCC5)c4)nc4snc(C)c34)CC2)CC1 stay below 4 nM?
Output: TRUE

----------
Compiled record: IC50 values for IRAK4 (Homo sapiens (Human)) across several sources.
# label = condition met if IC50 < 1 nM else condition not met

Use the examples below as a reference point.
compound	classification
COC(=O)N[C@H]1CC[C@H](c2cc(-c3cnc(-n4ncc5cc(C#N)cnc54)cc3NC(C)C)on2)CC1	condition not met
C=CC(=O)N1CCC[C@H](C(=O)Nc2ccc(Nc3nsc4ccc(-c5ccn[nH]5)nc34)cc2)C1	condition not met
CC(C)Oc1cc2nc([C@@H]3COCCO3)cn2cc1C(=O)Nc1cccn(C2CC2)c1=O (single isomer, unassigned)	condition met
CN(C)c1cc2nn([C@H]3C[C@H](C(C)(C)O)C3)cc2cc1NC(=O)c1cccc(F)n1	condition not met

Below: the item to evaluate.
Task: Does the reported IC50 of COCCn1cc(Nc2cc(-c3cnn4cc(C#N)cnc34)ncc2C(=O)NC[C@@H](F)C(C)(C)O)cn1 stay below 1 nM?
Output: condition not met

----------
Compiled record: IC50 values for IRAK4 (Homo sapiens (Human), UniProt Q9NWZ3) across several sources.
Please reply with the bare figure in nM and do not write the unit itself.

record-smiles	IC50 [nM]
COc1cc2nn([C@H]3CC[C@](C)(O)CC3)cc2cc1NC(=O)c1cccc(NC2CC2)[n+]1[O-]	1.7
CN(C)c1cc2nn([C@H]3C[C@H](C(C)(C)O)C3)cc2cc1NC(=O)c1cccc(C(F)(F)F)n1	6.8
Cc1cc(Nc2ncc(-c3nc4ccccc4s3)c(N[C@H]3C[C@@H](CO)[C@H](O)[C@@H]3O)n2)cc(C)n1	384

Task: Param readout= IC50; system= IRAK4 (Homo sapiens (Human), UniProt Q9NWZ3); entry= CC[C@@H]1OC(=O)N[C@@H]1COc1csc2cc(C(N)=O)c(OC)nc12 ; returns value.
Output: 6.8

----------
Compiled record: IC50 values for IRAK4 (Homo sapiens (Human), UniProt Q9NWZ3) across several sources.

Task: Fill in the blank: the reported IC50 of Cc1cc(C)nc(-n2ncc3ccc(-c4cccc(N)c4)cc32)c1 is ____.
Output: 1000 to 10000 nM

Task: Fill in the blank: the reported IC50 of C/C(=N\O)c1cccc(-c2ccc3cnn(-c4ccccn4)c3c2)n1 is ____.
Output: > 10000 nM

Task: Fill in the blank: the reported IC50 of CC(C)Nc1cc(-n2ncc3cc(C#N)cnc32)ncc1-c1cn(-c2cccnc2C#N)nn1 is ____.
Output: 13 nM

Task: Fill in the blank: the reported IC50 of OC[C@H]1C[C@@H](Nc2nc(NC3COC3)ncc2-c2nc3ccccc3s2)[C@H](O)[C@@H]1O is ____.
Output: 236 nM

Task: Fill in the blank: the reported IC50 of Cn1cc(-n2ccc3nc(Nc4ccc5c(c4)C(=O)NC5)nc(O[C@H]4CCOC4)c32)cn1 is ____.
Output: 100 to 1000 nM

Task: Fill in the blank: the reported IC50 of NCCNC(=O)c1cc(N)cc(-c2ccc3cnn(-c4cccc(C(F)(F)F)n4)c3c2)c1 is ____.
Output: < 100 nM

Task: Fill in the blank: the reported IC50 of CC1(C)CCCN(C(=O)CCc2cn(-c3ccccc3)c(NC(=O)c3cccc(-c4cn[nH]c4)c3)n2)C1 is ____.
Output: < 50 nM

Task: Fill in the blank: the reported IC50 of O=C(Nc1nc(CCCCN2CCCC2=O)cn1-c1ccccc1)c1cccc(-c2ccc3[nH]ncc3c2)c1 is ____.
Output: < 50 nM

Task: Fill in the blank: the reported IC50 of Cn1cc(-c2ccc3[nH]c4ncnc(NCCN5CCN(C(=O)OC(C)(C)C)CC5)c4c3c2)cn1 is ____.
Output: 1050 nM

Task: Fill in the blank: the reported IC50 of CC1(C)OC(=O)c2ccc(Nc3ncc(C(=O)NCC4CC(F)(F)C4)c(N[C@H](CO)c4ccccc4)n3)cc21 is ____.
Output: 250 to 1000 nM

Task: Fill in the blank: the reported IC50 of FC(F)(F)c1ccc2ncnc(N[C@H]3CC[C@H](N4CCOCC4)CC3)c2c1 is ____.
Output: ≤ 5000 nM

Task: Fill in the blank: the reported IC50 of CC(C)Nc1cc(-n2ncc3cc(C#N)cnc32)ncc1-n1cc(CC(C)(C)O)nn1 is ____.
Output: 56 nM

Task: Fill in the blank: the reported IC50 of Oc1ccccc1-n1cc(Nc2nc(N[C@H]3CC[C@H](O)CC3)c3sccc3n2)cn1 is ____.
Output: 100 to 1000 nM

Task: Fill in the blank: the reported IC50 of Cn1cc(-c2cnc(-c3ccc4cc(C#N)cnn34)cc2NC23CCC(O)(CC2)CC3)nn1 is ____.
Output: < 1 nM

Task: Fill in the blank: the reported IC50 of CCCNC(=O)c1csc(Nc2nc(O[C@H]3CCOC3)c3c(ccn3-c3cnn(C)c3)n2)c1 is ____.
Output: 100 to 1000 nM

Task: Fill in the blank: the reported IC50 of Cc1cccc(-n2ncc3ccc(-c4coc(CN)n4)cc32)n1 is ____.
Output: 1000 to 10000 nM

----------
Compiled record: pIC50 values for IRAK4 (Homo sapiens (Human), UniProt Q9NWZ3) across several sources.
pIC50 is defined as minus the log10 of a concentration measured in mol/L.

For orientation, consider the following solved cases.
compound	pIC50
C=CC(=O)N1CCC[C@H](C(=O)Nc2ccc(-c3nnc(-c4cccc(-c5ccn[nH]5)n4)[nH]3)nc2)C1	6.90
CC(C)(O)CCc1cn2cc(NC(=O)c3cccc(C(F)(F)F)n3)c(C3CC3)cc2n1	8.44
CC(C)Oc1c(C(=O)Nc2cccn([C@@H]3C[C@@H]3F)c2=O)cn2cc(C34COC(C)(C3)C4)nc2c1F (single isomer, unassigned)	7.21
CN(C)[C@H]1CC[C@H](Nc2ncnc3ccc(-c4cccnc4C#N)cc23)CC1	7.37

Task: Fill in the blank: the reported pIC50 of CC(C)CCNC(=O)c1cnc2sc(-c3cccnc3)cc2c1NC(C)C is ____.
Output: 7.45

Task: Fill in the blank: the reported pIC50 of Cc1cc(-c2nc(C(=O)Nc3cn4cc(CCC(C)(C)O)nc4cc3N3CCC4(CC3)COC4)co2)ccn1 is ____.
Output: 8.37

Task: Fill in the blank: the reported pIC50 of COc1ccc(-c2ccc3[nH]c4ncnc(N[C@H]5CC[C@H](N6CCOCC6)CC5)c4c3c2)cn1 is ____.
Output: 7.40

Task: Fill in the blank: the reported pIC50 of CC(C)(F)Cn1ccc(Nc2cc(-c3cnn4cc(Cl)cnc34)ncc2C(=O)NC[C@@H](F)C(C)(C)O)n1 is ____.
Output: 8.05

Task: Fill in the blank: the reported pIC50 of Cc1nsc2nc(Nc3cnn(C4CCOCC4)c3)nc(N[C@H]3CC[C@H](N4C[C@H]5C[C@@H]4CN5C)CC3)c12 is ____.
Output: 6.56

Task: Fill in the blank: the reported pIC50 of CC(C)(O)[C@H](F)CNC(=O)c1cnc(Nc2ccc3ncsc3c2)cc1NC1COCCC1F (stereo partly drawn) is ____.
Output: 8.77
